Attribution: the NTF2 design screens of Basanta et al. (2020)

test.method.notes: protease stability score; higher = more stable; yeast display proteolysis, trypsin and chymotrypsin;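 further: relative to predicted unfolded state with 0 unfolded-like and 1 meaning tenfold more protease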
# if value of protease stability score reaches 1, tag y; if it stays below, tag n

Would you say `THEEEQARRALKHLIELEKTGDEEKWSHLADPNVRMEINGRQVHGRETIRKIYHEWRRKLGVNHIHHIEIKHIDIQGEKLRVEMHVNSQYGDKTLLIETEIELDKIDGKWIITMHYER` shows protease stability score at minimum 1? y

Same question, `SEEEEESKYALKIERELLYTGDWHLLTRYADPDVRATINGQKVIGRELFSHIFLEELDKLGMRIHDIRETHWTLINGVAIHHMRINTRQGEKSYHTEMNLISLKVDGRWLIQSYELG` this time n

Repeat with `DDEDREAQELLNLYLHAHRTGDEHLLDELVDPHARIIVNGQEIHGRDFLEYLKKFWGITNVNIDIHIDDLKLYDGRIEVETRLILEINGQRYTYSSHEHWHKVNGKWISKRVDFE` y

Lookup `DEDHELSKLAQEWFYKTMVTGDEETAERLADPNMRIDINGKSLHGRKWQRHIIRDLGVDHVEFHDVRTINGQLHISTTINVDGRNQHTHIIVLKIDGRWSLRSSEFK` n

Likewise for `TEDQEQLEQHIRELTHNWHTGDFDSLKKLFDPNVKLEIGDKEYHGRELAEKYIRDELRHLRIEHVENREWRLINGVIILHTRLVGNIDGQRVERDTEIYVKKFDGQWIIEIFRVH` ? y

And the next one, `SEDHEDMDRMFDLLIKLLYTGDEESLEELFDPNTRIDVGDKVLHGRELAVKHVKDRLRRADHIEFHIKDRRAIDGRLEIDMELRIHVDGKDIIIRTKVHLEKVNGRWLIHHIKVH` ? y
